tested on: HT-29 cells; assay: HT-29 necroptosis cell viability assay (TNF-α/SMAC mimetic/zVAD-FMK, CellTiter-Glo); assay type: cell-based; settings: Homo sapiens, HT-29, HT-29 necroptosis cell viability, IC50 class symbols; read-out: Activity
pIC50: −log10 of the molar value.
ASSAY_METRIC: pIC50

Answered examples (2):
COMPOUND	pIC50
CC(C)(C)OC(=O)Nc1cc(Oc2ccc(-n3ncn(Cc4ccccc4)c3=O)cc2)ccn1	6.00 to 7.00
Cc1c(Oc2ccc(-n3ncn(Cc4c(F)cccc4F)c3=O)cc2F)ccnc1NC12CC(C#N)(C1)C2	> 7.00

Prompt: Which pIC50 value is on record for Cc1nc(N2CCOCC2)sc1Oc1ccc(-n2ncn(Cc3c(F)cccc3F)c2=O)cc1F ?
Completion: > 7.00

Prompt: Follow-up entry: CC1(N)CN(c2cc(Oc3ccc(-n4ncn(Cc5c(F)cccc5F)c4=O)cc3F)c(F)cn2)C1
Completion: 6.00 to 7.00

Prompt: Follow-up entry: CCN(C)c1cc(Oc2ccc(-n3ncn(Cc4c(F)cccc4F)c3=O)cc2)ccn1
Completion: 6.00 to 7.00

Prompt: Follow-up entry: COC1(C#N)CN(c2cc(Oc3ccc(-n4ncn(Cc5c(F)cccc5F)c4=O)cc3F)c(F)cn2)C1
Completion: > 7.00

Prompt: Follow-up entry: CC1CN(c2cc(Oc3ccc(-n4ncn(Cc5c(F)cccc5F)c4=O)cc3)ccn2)CC1C#N (centres unmarked)
Completion: > 7.00

Prompt: Follow-up entry: N#CC12CC(Nc3cc(Oc4ccc(-n5ncn(Cc6c(F)cccc6F)c5=O)cc4Cl)c(F)cn3)(C1)C2 [Example 392]
Completion: > 7.00

---

test system: HT-29 cells; test: HT-29 necroptosis cell viability assay (TNF-α/SMAC mimetic/zVAD-FMK, CellTiter-Glo); type: cell-based; details: Homo sapiens, HT-29, HT-29 necroptosis cell viability, IC50 class symbols; read-out: Activity
ASSAY_METRIC: IC50

Answered examples (3):
MOLECULE	REPORTED_RESULT
O=c1n(Cc2c(F)cccc2F)cnn1-c1ccc(Oc2ccnc(N3CCOC4(COC4)C3)c2)cc1	100 to 1000 nM
N#Cc1ccccc1Oc1ccc(-n2ncn(Cc3c(F)cccc3F)c2=O)cc1	100 to 1000 nM
N#CC12CC(Nc3nccc(Oc4ccc(-n5ncn(Cc6c(F)cccc6F)c5=O)cc4Cl)c3F)(C1)C2	100 to 1000 nM

Prompt: Which IC50 value is on record for Cc1cnc(N2CCC(C)(C#N)C2)cc1Oc1ccc(-n2ncn(Cc3c(F)cccc3F)c2=O)cc1F (centres unmarked) ?
Completion: < 100 nM

Prompt: Follow-up entry: N#Cc1cc(Oc2ccc(-n3ncn(Cc4c(F)cccc4F)c3=O)cc2F)c(Cl)cn1
Completion: < 100 nM

Prompt: Follow-up entry: CCOC1CN(c2nccc(Oc3ccc(-n4ncn(Cc5c(F)cccc5F)c4=O)cc3)c2F)C1
Completion: < 100 nM

Prompt: Follow-up entry: CC1(N)CN(c2nccc(Oc3ccc(-n4ncn(Cc5c(F)cccc5F)c4=O)cc3F)c2F)C1
Completion: < 100 nM

Prompt: Follow-up entry: O=c1n(Cc2c(F)cccc2F)cnn1-c1ccc(Oc2ccnc(N3CC4(CCOCC4)C3)c2)cc1
Completion: < 100 nM

---

Quick reference: pIC50 of the listed items.
test system: HT-29 cells; test: HT-29 necroptosis cell viability assay (TNF-α/SMAC mimetic/zVAD-FMK, CellTiter-Glo); format: cell-based; details: Homo sapiens, HT-29, HT-29 necroptosis cell viability, IC50 class symbols; read-out: Activity
pIC50: −log10 of the molar value.

Answered examples (3):
COMPOUND	pIC50
O=c1n(Cc2c(F)cccc2F)cnn1-c1ccc(Oc2ccnc(NC3(C(F)(F)F)CC3)c2F)cc1	5.00 to 6.00
CC(C)(C)CCNc1cc(Oc2ccc(-n3ncn(Cc4c(F)cccc4F)c3=O)cc2)ccn1	5.00 to 6.00
O=c1n(Cc2c(F)cccc2F)cnn1-c1ccc(Oc2ccncc2)cc1	6.00 to 7.00

Prompt: Find the measured pIC50: item Cc1nc([C@H](C)O)sc1Oc1ccc(-n2ncn(Cc3c(F)cccc3F)c2=O)cc1F (single isomer, unassigned) , target or system HT-29 cells.
Completion: > 7.00
